meta.source: the DeepSol protein solubility set

- assayComment: soluble on expression in E. coli; label from the status in PepcDB or PDB records
parameter: soluble on expression in E. coli

MFRWLFQSEGVTRSFDTPSETQSARDDRKTIGDYADNFLLFDLVMGEVEMAVIRFEIEKEEKEEAERKAERRPDYSWLISGNMNRARKQLSINEKNRIENACERLKPCEWSKTIDTWKIKTQNPSTRDQIIENFVIATHETIQSRKHEPTITEVLKNFATGRSGSLHTVSHGELPRVGSGRNISELSFIELQEMV    not soluble
ESEILGLFQRWQAAHGQRSGKALEGVYAPRLDYYGRAQTRERTLSAKQAFFARHPDFEQRIVAAPQIVPGDQEGRYEVRFVKQVRLDGRLRNYPGLLLAERAGPGDTWRFVGESDEITRYAVDPRYTPLARGRFAGTEADFAWVVAHAPNSAALCDEYEDCRCDLWSADARVPPK    not soluble
MGSDKIHHHHHHMKTIKGPAIFLAQFMSDVAPFNNLKNICDWAASLGYKGVQIPSWDVRCIDLQKAAESKTYCDEIKAVVHAAGLEITELTSHLQGQLVASHAAYDAAFDVFAPAAIHNNPKARAEWATQQLMYAAKASQNLGLTAHATFSGALLWHTMYPWPQRKAGSVEEGFTELAKRWLPILNAFDQAGVDLCYEIHPGEDLHDGITFERFLKATDNHSRAHILYDPSHFVLQQLNYLDYIDIYHEHIKMFHVKDAEFNPSGRAGVYGGYQDWIDRPGRFRSLGDGQVNFKAIFSKLTQYDFPGWAVLEWECCLKHPEDGAREGAAFIKNHIIRVADKAFDDFAG    not soluble

====

- assayComment: soluble on expression in E. coli; label from the status in PepcDB or PDB records
parameter: soluble on expression in E. coli

MGVELSLDPPVCPIQANGGVSTHKIINHCDKMLAYKIKSSNNSNYSVNTIFGLIQIGYTADLIITRKPGKPQADKLVIQFAAVEQTCRDGCICQGCICQWTANWRVLWRDDHQAVSC    not soluble
MGSDKIHHHHHHMGRLKTVKLVLLHTSFNLFYQFFYKVFGPKKGRITLATMRSGQLNDNLAALEQGLKTANVKPVTVFCYHYDRTLAGKVGFLLASIKALYVIARADVFVIDDYFFPLYAIHKHDDNQVVQLWHAIGSLKKFGLSLPNADQSVMKPHTNYDWVLINAKSDQPAYLDAMAINQDHVIATGSPMVDSLLNRQPQQPRLAARRILYSPTYRQGVQGKQQVMGYVNNMIAACQQLTGPWELYISLHPYLKLSAMTLPSNVHIFQDAERVKTLMPTIDLFITDYSSLSLTFSYFERPIILYTPDYDDYMQTSGFYVDYYQYLQAPHFSKAARVVDFINQEVDHMDLSYVHELKQKTFPHQDGHNTERVVQFVEKLAGGEH    not soluble
MGSDKIHHHHHHMKKHKIGIYEKALPKNITWQERLSLAKACGFEFIEMSIDESNDRLSRLNWTKSERIALHQSIIQSGITIPSMCLSAHRRFPFGSKDKKIRQKSFEIMEKAIDLSVNLGIRTIQLAGYDVYYEKQDEETIKYFQEGIEFAVTLAASAQVTLAVEIMDTPFMSSISRWKKWDTIINSPWFTVYPDIGNLSAWNNNIEEELTLGIDKISAIHLKDTYPVTETSKGQFRDVPFGQGCVDFVHFFSLLKKLNYRGAFLIEMWTEKNEEPLLEIIQARKWIVQQMEKAGLLC    not soluble
TDPDFLIRLATNLKEEKSKRLEAEQKIEAQRPKVLFADAVSDTEGTILIRDLAKLIQQNGVDIGEKRLFEWLRQNGYLISRRGTDYNRPTQKSMELGLFKIKETAIMRSSGAHTAITAKVTGKGQLYFVNKFLEQSLV    not soluble
